target: Nonstructural protein 3 (Zika virus); assay: Functional biochemical assay to identify treatments for viral infectious disease that targets Zika NS2B-NS3 protease. Utilizing a direct enzyme activity measurement method, reading the fluorescence intensity is used to characterize the relative potency of inhibitors as IC50.; set-up: species or system PRVABC59
Sequence (A0A024AXB9 whole entry): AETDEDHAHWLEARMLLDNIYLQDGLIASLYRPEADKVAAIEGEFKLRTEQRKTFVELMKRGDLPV
pIC50: −log10 of the molar value.
pIC50 for assorted molecules
Readout name: pIC50

{"Compound string": "O=C(O)c1cc2cc(-c3cc(Cl)cc4c3O[C@H](CO)C4)ccc2[nH]1", "Result": "< 4.60"}
{"Compound string": "C[C@@]1(c2cccc(CN)c2)C[C@H]1c1cc(Cl)cc(NC(=O)OCc2ccccc2)c1", "Result": 5.25}
{"Compound string": "COc1nnc(C(F)(F)F)cc1-c1ccc2[nH]c(C(=O)O)cc2c1", "Result": "< 4.00"}
{"Compound string": "Oc1cc(N2CCN(Cc3c[nH]c4ccccc34)CC2)ccn1", "Result": "< 4.00"}
{"Compound string": "CCn1cc(-c2cccc(-n3cccn3)c2)nc(N2CC[C@@H](CO)C2)c1=O", "Result": "< 4.00"}
{"Compound string": "COc1c(C(=O)N(C)C)cc(Cl)cc1S(=O)(=O)Nc1cccc(-c2nnn[nH]2)c1", "Result": "< 4.00"}
{"Compound string": "NCCc1csc2cc(C(=O)Nc3cc([C@H]4CCOC4)ccn3)ccc12", "Result": "< 4.60"}
{"Compound string": "CNC(=O)[C@H](Nc1cccc(-c2nn[nH]n2)c1)c1cc(Cl)cc(NC(=O)OCc2ccccc2)c1", "Result": "< 4.00"}
{"Compound string": "O=C(Nc1ccc2c(c1)CNC2)c1cc(Br)cc2[nH]c(C3CCOCC3)nc12", "Result": 6.23}
{"Compound string": "O=C(O)c1ccn(C2CCN(Cc3c[nH]c4ccccc34)CC2)n1", "Result": "< 4.00"}
{"Compound string": "CCCC[C@H](N)C(=O)N[C@H](C(=O)NCc1ccc(C(N)=O)cc1)c1ccc(OCc2ccccc2)cc1", "Result": 4.09}
{"Compound string": "CCc1nc(C(=O)Nc2cccc(CN)c2)nn1-c1c(Cl)cccc1Cl", "Result": "< 4.00"}
{"Compound string": "O=C(Nc1cc(Cl)cc(C(=O)Nc2ccc3c(c2)CNCCO3)c1)OCc1ccccc1", "Result": 5.11}
{"Compound string": "CCn1ccnc(N2C[C@@H](O)[C@H](c3c[nH]c4ccccc34)C2)c1=O", "Result": "< 4.00"}
{"Compound string": "Cc1nc(CCCNCc2n[nH]c3ccccc23)cs1", "Result": "< 4.00"}
{"Compound string": "O=C(O)Cn1ccnc(N2CC[C@@H](CO)C2)c1=O", "Result": "< 4.00"}
{"Compound string": "NCc1cccc(C(=O)Nc2cc(Cl)cc(NC(=O)OCc3ccccc3)c2)c1", "Result": 4.78}
{"Compound string": "C=CC[C@H]1NCc2cc(NC(=O)c3cc(F)cc4[nH]ncc34)ccc21", "Result": 6.54}
{"Compound string": "O=C1CCCc2cc(C(=O)Nc3ccc4c(c3)CNC4)ccc2N1", "Result": "< 4.60"}
